Listed next: entries and their corresponding EC50.
system: HCVcc, Genotype 2a; test: HCVcc inhibitor assay in Huh 7.5 cells, Renilla luciferase readout; type: cell-based, HCV; conditions: Hepatitis C virus, Huh-7.5.1
Quantity Name: EC50 (nM)

compound="Cn1c(Nc2ccc(C(F)(F)F)cc2)nc2cc(Oc3ccnc(-c4ncc(C(F)(F)F)[nH]4)c3)ccc21 [Raf265]" recorded_measurement=1050
compound="Cc1ccc(NC(=O)c2cccc(C(C)(C)C#N)c2)cc1Nc1ccc2ncn(C)c(=O)c2c1 [AZ-628]" recorded_measurement=120

* * *

System: HCVcc GT2a
Experiment: Synergistic antiviral potency against HCVcc (AZ-628 with direct-acting antivirals)
Assay type: cell-based, HCV
Settings: Genotype 2a, single drug; read-out: EC50 alone
Protocol: The tested RAF inhibitors were evaluated for an ability to synergize with other current, late stage or marketed direct-acting antivirus (DAAs).
Quantity Name: EC50

entry_smiles=CC(C)OC(=O)[C@H](C)N[P@](=O)(OC[C@H]1O[C@@H](n2ccc(=O)[nH]c2=O)[C@](C)(F)[C@@H]1O)Oc1ccccc1 quantity_name=EC50 recorded_measurement="250 nM"

* * *

system: HCVcc GT2a; assay: Synergistic antiviral potency against HCVcc (AZ-628 with direct-acting antivirals); format: cell-based, HCV; settings: Hepatitis C virus, read-out: EC50 alone
Quantity Name: EC50 (µM)

entry_smiles=Cc1ccc(NC(=O)c2cccc(C(C)(C)C#N)c2)cc1Nc1ccc2ncn(C)c(=O)c2c1 quantity_name=EC50 recorded_measurement=0.3

* * *

system: HCVcc GT2a; assay: Synergistic antiviral potency against HCVcc (AZ-628 with direct-acting antivirals); type: cell-based, HCV; conditions: Hepatitis C virus; Genotype 2a, single drug; read-out: EC50 alone
Quantity Name: EC50

molecule="COC(=O)N[C@H](C(=O)N1CCC[C@H]1c1ncc(-c2ccc(-c3ccc(-c4cnc([C@@H]5CCCN5C(=O)[C@@H](NC(=O)OC)C(C)C)[nH]4)cc3)cc2)[nH]1)C(C)C [BMS-790052]" recorded_measurement="0.1 nM"
